Give measured log10 MIC for each item. Keep answers brief.
- Tested on: Trichophyton rubrum
- experiment notes: Antifungal activity against Trichophyton rubrum
- Type: functional
A value of 2 here means MIC of 100 in mg/L, since values are log10.

Guide cases for log10 MIC, answers given:
| compound | log10 MIC |
| --- | --- |
| OB1OCc2cc(Cl)ccc21 | 0.00 |
| Fc1ccc2c(c1)COB2c1ccsc1 | 0.00 |
| Fc1ccc(B2OCc3ccccc32)cc1 | 0.90 |
| CC1OB(O)c2ccc(F)cc21 (stereo not given) | 1.51 |
| Fc1cccc(B2OCc3cc(F)ccc32)c1 | 0.00 |

Below are some compounds; for each one, tell me its log10 MIC.
1. OB1OCc2c(F)cccc21
2. Fc1ccc2c(c1)CCOB2c1ccccc1

Result block:
1.20
0.90
